Target: D. rerio CBP NCBD domain, Trp variant (D_rerio_NCBD 2064-2122) (Danio rerio)
Experiment: stopped-flow spectroscopy; Trp variant of NCBD of the same species mixed with CID or N-CID-C; kon from the slope of kobs against CID concentration; koff from displacement of the complex by an excess of wild-type NCBD (average of three experiments); Kd = koff/kon; 20 mM sodium phosphate pH 7.40, 150 mM NaCl, 4 °C; double exponential fit for human and C. milii NCOA3, the high kobs used for Kd
Output Criterion met for records whose Kd is lower than 200 nM, Criterion not met for records at or above 200 nM.

{"binder": "D. rerio NCOA3 N-CID-C (CID with N- and C-terminal flanking regions) (domain or fragment) GSPPQSPSWPDSGMGMEGPPSANRLPINSPLDELLAPPSTSEGQSDERALLDQLDSLLNNTDVIALEEIDRALGIPDLINQGHSSDQPPPSDPFSGPCLGPDSSMGMEPPKAMYGQGYPGPP", "cat": "Criterion met"}
{"binder": "D. rerio NCOA1 N-CID-C (CID with N- and C-terminal flanking regions) (domain or fragment) GSEPMTFDNSLANQTQAPLSSPQEQCVPCPLDEMLCPPTTPEGRNDEKALLEQLVTFLSHTDESELAELDRALGIDKIVQSGCLEPVTQTPFPQSQPPTPVPLDPKLPSYPSQFPTSPSQFP", "cat": "Criterion met"}
{"binder": "D. rerio NCOA2 N-CID-C (CID with N- and C-terminal flanking regions) (domain or fragment) GPGSPPNQTAPWPDSVMPIEPVPFGNQSSSMYGGSQEDVLCPPASEGPADEGALLSQLYSALKDFDGLEEIDRALGIPALVGQAQPVEQDQFPGQDPSMMMDQKPPMYGQQQYASSPANMQQAG", "cat": "Criterion met"}
{"binder": "GPGSASEGPADEGALLSQLYSALKDFDGLEEIDRALGIPALVGQAQ (domain or fragment) [D. rerio NCOA2 CID (minimal region)]", "cat": "Criterion met"}
{"binder": "GSEGQSDERALLDQLDSLLNNTDVIALEEIDRALGIPDLINQGH (domain or fragment) [D. rerio NCOA3 CID (minimal region)]", "cat": "Criterion not met"}

Consider the record given below.
## Task Please state whether Kd is below 200 nM for GSEGRNDEKALLEQLVTFLSHTDESELAELDRALGIDKIVQSGC (domain or fragment) [D. rerio NCOA1 CID (minimal region)]
## Result Criterion met

Value source: paper PMC10515491
